system-tested: ABL1 (T315I) (Homo sapiens, UniProt P00519, T315I)
test-details: Luminescence-based ABL kinase assay (300 μM ATP), ADP-Glo
Assay type: biochemical
Returns: string. Value is YES if measured IC50 is below 60 nM, and NO if it is greater than or equal to it.

Cn1c(-c2cnccc2OC2CC2)cc2cc(NC(=O)[C@@H]3C[C@@H]3F)ncc21 [Compound 116]	NO

Query: Criterion: IC50 strictly below 60 nM. Is it met by CCc1ncccc1-c1cc2cc(NC(=O)[C@@H]3C[C@@H]3F)ncc2n1C [Compound 112] ?
Result: NO

Query: Field entry: COc1cc2[nH]ncc2cc1-c1cc2cc(NC(=O)[C@@H]3C[C@@H]3F)ncc2n1C [Compound 74]
Result: YES

Query: Field entry: Cn1c(-c2cccc3c2CCN3)cc2cc(NC(=O)[C@@H]3C[C@@H]3F)ncc21 [Compound 31]
Result: YES

Query: Field entry: COc1ncnc(OC)c1-c1cc2cc(NC(=O)[C@H]3C[C@@H]3CN3CCN(C)CC3)ncc2n1C (single isomer, unassigned) [Compound 124]
Result: YES

Query: Field entry: Cc1c(-c2cc3cc(NC(=O)C4CC4)ncc3n2C)ccc2c1CCN2 [Compound 13]
Result: NO

Query: Field entry: COc1cccc(F)c1-c1c(C)c2cc(NC(=O)[C@H]3C[C@H]3F)ncc2n1C [Compound 45]
Result: YES

Taken from patent US12240846B2.
